Cited source for all entries: patent US20230095558A1

Measured Kd of individual entries
# target.of.assay: T1, TIM3 protein (cat #CHI-MF-210T3-0050, Chimerigen)
# T1 construct: Bought recombinant protein used in SPR; also called TLM3 protein
# method.summary: SPR (OpenSPR), TIM3 protein immobilised on chip, peptide in flow
# output: numeric value plus its unit

INSERT INTO results (binder, observed_value) VALUES
  ('WQQNNPHLWDVFLGVPRTTE (Synthetic 20-mer from phage display screening) [K5-20-peptide (targeting TIM3)]', '18 µM'),
  ('SQEVFAWTFSPRWTTAPKAL (Synthetic 20-mer from phage display screening) [K3-20-peptide (targeting TIM3)]', '20.1 µM');

Please examine the following record next.
Reported Kd for FTYAHPVSHRWESSVHVDQW (Synthetic 20-mer from phage display screening) [K2-20-peptide (targeting TIM3)] : what is it?
227 µM
